From: the supplement of paper PMC9170038

I'd appreciate it if you could supply apparent KD of K4 kissing-loop reporter values for the items below.
system: K4 kissing-loop RNA reporter; test: apparent KD of K4 kissing-loop reporter; higher = weaker reporter binding; details: Eterna round: R107; input ligand: FMN 200 uM;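 also: bound reporter read as fluorescence of individual clusters on recovered sequencing chips by microscopy, with normalized cluster intensities fitted with a binding model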
The figure you give is taken to be in nM; do not add the unit.

Task: Assign apparent KD of K4 kissing-loop reporter to the following record: UGAUACCAGACUGAUACCAGCAAGUGAUGUUUGCUGAUCUAAAGCAGUCAAAGACUGCCUUGCCCUUGGCAGCAGUCUGGUAUCU [TheoBX 25 #SwitchBubble #StaticStem]
Result: 92.3

Task: Assign apparent KD of K4 kissing-loop reporter to the following record: GCGCGUCAUGUCAGCGGUGACACUGUCGAUACCAGCGCCGCAAGGCGCCCUUGGCAGCGACGUGCUGGAGUGAUGUUCCAGCGUC [#2 Exclusion - Theophylline A Attempt #22 (HarryS)]
Result: 159

Task: Assign apparent KD of K4 kissing-loop reporter to the following record: ACGUAGUUCUAGGAUACCAGCCAAGAAGCCAGGACAAAAGUCCUGGCUGCCAGUGAUGUUGGCCCUUGGCAGCCUAGAACUACGA [Omei KL Theo B Exc B v10]
Result: 128

Task: Assign apparent KD of K4 kissing-loop reporter to the following record: GCCGUAGAUUGAAGGAGCGCCUUCUUACCAAGAGUGAUGUUCUUUGGUACCAUGUUCAGUAGGCAGGUAGGUCGCAAUCUACGGC
Result: 292

Task: Assign apparent KD of K4 kissing-loop reporter to the following record: AGUAGAGCAUCAGAUACCAGACAGAACUGAUGGUAAGGAGUGAUGUUCCUUAAUCAGCUUGUCCCUUGGCAGCUGAUAGUAGUCA [#14 K4 Theophylline B Same State]
Result: 388

* * *

system: MS2 coat protein; assay: apparent KD of MS2 coat protein, switch ON state; designed switch direction (-1 OFF switch, 1 ON switch): 1; higher = weaker reporter binding; details: FMN input: 0 or 200 uM; Eterna round: R93 (includes R88 designs)
Rule: apparent KD of MS2 coat protein under 20 nM gives NOT MET, otherwise MET.

Task: Is apparent KD of MS2 coat protein at least 20 nM? Consider UCAGAACCGACAAAGGAUAUAGCGGGUGAGACAUGAGGAUCACCCAUGUAUGCAGAACUCAUCCUCUAGAAGGUUGAGACGGAUA [Maedanon]
Result: MET

Task: Is apparent KD of MS2 coat protein at least 20 nM? Consider AGGUAACAUGAGGAUCACCCAUGUACCGAUAAUGCAGGAUAUCGACACGAAAAUACGUGUCGAGAAGGGCAUGAAA [SS1 MT 23]
Result: NOT MET

Task: Is apparent KD of MS2 coat protein at least 20 nM? Consider UAAAAACAUGAGGAUCACCCAUGUGAAAAUAUGGGAGGAUAUACAAAGACGAGAGUCAAAGUAGAAGGCCUAAAAU [Mat - Same State 1 - Eli mod - D88]
Result: NOT MET

Task: Is apparent KD of MS2 coat protein at least 20 nM? Consider AACAAUCUAUCUGAGGAUAUAUGUCGAAAGACAUGAGGAUCACCCAUGUGAAAACAUGAAAAAACAUAGAAGGCAGAUAGAUUGA [SS2: 1136]
Result: MET

Task: Is apparent KD of MS2 coat protein at least 20 nM? Consider AUAAAAUAAAGUGAGGAUAUCUAUAAUAAAACAUGAGGAUCACCCAUGUUAAAAAAAAGAUCAUGGGAGAAGGCAUAAAAUAAAU [SS2 M 31]
Result: NOT MET

Task: Is apparent KD of MS2 coat protein at least 20 nM? Consider AAAAGACAUGAGGAUCACCCAUGUCAAAAGACAUGAGGAUAUGUACAGACUUCGGUCUGUACAGAAGGCAUGUAAA [SS1 - 1069]
Result: NOT MET

* * *

system: MS2 coat protein; experiment: apparent KD of MS2 coat protein; designed switch direction (-1 OFF switch, 1 ON switch): -1; higher = weaker reporter binding; conditions: input ligand: FMN 200 uM
I'd appreciate it if you could supply apparent KD of MS2 coat protein values for the items below.
The figure you give is taken to be in nM; do not add the unit.

Task: Assign apparent KD of MS2 coat protein to the following record: GAAUCGCAUGUUAGGAUAUAUCUGUCGGAGUAUGGAUAGAAGGGACAUGAGGAUCACCCAUGUGAAGGCCGUUC [Eternabot (L1) Solution 58] (Eterna round: R97, puzzle: Brourd's mod of Exclusion 4)
Result: 210

Task: Assign apparent KD of MS2 coat protein to the following record: ACAUGUAAUGUAGGAUAUUUUACACAUGAGGAUCACCCAUGUGACCGGAGGCUUUACUAUGAGUAAAAGAAGGGUAUGUACAUG [Ex NG2 #61] (Eterna round: R96, puzzle: Exclusion NG 2)
Result: 68.5

Task: Assign apparent KD of MS2 coat protein to the following record: AAGAAACGGCAGGAUAUCCAGUCGAGAGAAAUAGGAGAAGGGCCAACAUGAGGAUCACCCAUGUCGGUGGCCUC [Rariinon] (Eterna round: R97, puzzle: Exclusion 6)
Result: 145

* * *

tested on: MS2 coat protein; assay: apparent KD of MS2 coat protein; designed switch direction (-1 OFF switch, 1 ON switch): 1; higher = weaker reporter binding; conditions: Eterna round: R98; input ligand: FMN 200 uM
reported endpoint: apparent KD of MS2 coat protein (nM)
The figure you give is taken to be in nM; do not add the unit.

Task: Assign apparent KD of MS2 coat protein to the following record: GCAGAAGGUGCGGAGGAUCACCCUGUAAGGAUAUGCAUUAGCAAGGAUAUACAGAGGAUCACCCUGUAGAAGGUGCACUUCUGC [pwkr2 ssNG3 DX.9]
Result: 1310

Task: Assign apparent KD of MS2 coat protein to the following record: CCUGACACUUGAGGAUAUGCUCAGGAAUACUGAGCAGAAGGCAGGAAAACCUGAGGAUCACCCAGGUAAGUCAGGAAUAAUAAA [Same State NG1 - A3C, U17G Submission 3A]
Result: 17.2

Task: Assign apparent KD of MS2 coat protein to the following record: GAGCUGCUCUGAGGAUAUGGGUUUAUAAGGACGGGCACGCCCGACAUGAGGAUCACCCAUGUCUACCAGAAGGCAGAAAAGUUC [Mamain]
Result: 394

Task: Assign apparent KD of MS2 coat protein to the following record: AAGUUUUUACAAGGAUAUCAGUUGUUUAUAAAUUAAACAUGAGGAUCACCCAUGUAACAAAGGAGUGAGAAGGUGUGUUGGAAA [JR_SSNG2_Sub089]
Result: 319

Task: Assign apparent KD of MS2 coat protein to the following record: CACGUCCUCACAGGAUAUGCUGGACUUUGUCCAGCAGAAGGGUGAACAUGAGGAUCACCCAUGUAAAGGACGUGUAUAUUUAAU [Denovo 23]
Result: 72.5

Task: Assign apparent KD of MS2 coat protein to the following record: GCUUGCGACGCAGGAUAUGGGUGCCUGCACACGAGGAUCACCCGUGUAGAGGAACGGAUUACGUCUCAGAAGGGCGUGGCAGGC [United States 4 - Jieux - Same State NG 2]
Result: 21.8

Task: Assign apparent KD of MS2 coat protein to the following record: UUGGUUCUCGUAGGAUAUGUAGGAUAUGCCUACAUGAGGAUCACCCAUGUUCGCAUGGCAGAAGGACAGAAGGACGAUCACCAU [pwkr ssNG2 2FMN +1F5.17]
Result: 20.8

Task: Assign apparent KD of MS2 coat protein to the following record: CUGCAAUUCUUAGGAUAUGCUCAGGAAUACUGAGCAGAAGGAAGAUAUACCUGAGGAUCACCCAGGUUAAACUGGAGCAGAAUA [Same State NG1 - A3C, U17G Submission 8A]
Result: 32.2

Task: Assign apparent KD of MS2 coat protein to the following record: GCUCUCACUUGAGGAUAUCGAGUGGAUAACACUCGAGAAGGCAGGGAAACCUGAGGAUCACCCAGGUAACUGGAAAGAGAGCAA [Same State NG1 - A3C, U17G Submission 5D]
Result: 20.4

Task: Assign apparent KD of MS2 coat protein to the following record: GCGUCCCGCAGAGGAUAUGUUGUUCGGCCUACAUGAGGAUCACCCAUGUCAAAGGGCUGAUCCCAACAGAAGGCUGAAGGAUAC [Qumarera]
Result: 8.73

Task: Assign apparent KD of MS2 coat protein to the following record: CAUGUCCUCACAGGAUAUGCUGGACUUUGUCCAGCAGAAGGGUGAACAUGAGGAUCACCCAUGUAAUGGACAUGUAUAUUUAAG [Mat - Same State NG 1 - Eli mod - D98]
Result: 49.4
